All values here come from PubChem BioAssay (NCI).

Assay notes: NCI Yeast Anticancer Drug Screen. Data for the sgs1 mgt1 strain (AID 161);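 note: 0% = growth of cultures given vehicle only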
Condition set: S. cerevisiae sgs1 mgt1 strain, at 5.0 µM (retest, dose inferred, filed as 0.5), stronger effect = higher value
This is part of a sample that, as a whole, favours compounds with a hit. Of some 79,000 tested, about 15% had one in any assay.
List of growth inhibition values.
Only the number, expressed in %, is required.

Consider the worked cases shown below.
{"columns": ["Compound", "Reported result"],
 "data": [
  ["COc1ccc(OC)c(Cc2cnc3nc(N)nc(N)c3c2C)c1", 12],
  ["CC(=O)N1CC(=O)NC1=S", -5],
  ["S=c1[nH]c2cc(Cl)ccc2s1", -6],
  ["COC(=O)c1ccc(=O)c2nc3/c(=C/O)c(O)cc(=O)c3[nH]c12", 99],
  ["O=[N+]([O-])CC(O)c1ccccc1 (stereo not given)", -2],
  ["CN1CCC(CN2c3ccccc3Sc3ccccc32)C1 (stereo not given)", -8],
  ["O=S(=O)(O)c1cnccn1", -4],
  ["Nc1ccc(-c2ccc(N)c(S(=O)(=O)O)c2)cc1S(=O)(=O)O", 5],
  ["CN(Cc1ccccc1)c1ccc(SC#N)cc1", -5],
  ["OCCOSCCO", -8]
]}

Problem: What does the record list as growth inhibition for CCCCCCC1N=C(N)N=C(N)N1c1cccc(Cl)c1 (stereo not given) ?
Result: 8

Problem: What does the record list as growth inhibition for CN(C)CNC(=S)S ?
Result: 100

Problem: What does the record list as growth inhibition for O=C1C=CC(=O)N1c1cc(Cl)c(Cl)cc1Cl ?
Result: 101

Problem: What does the record list as growth inhibition for COc1cc(/C=C2\SC(=S)N(/C=C/c3nc4ccccc4[nH]c3=O)C2=O)cc(OC)c1OC ?
Result: -3

Problem: What does the record list as growth inhibition for CCCCN(CCCC)C(=O)C(C)OC(C)=O (stereo not given) ?
Result: -3

Problem: What does the record list as growth inhibition for CCOc1ccc(NC(=O)/C(=N\N)C(C(=O)OC)c2nc3ccc(Cl)cc3[nH]c2=O)cc1 (stereo not given) ?
Result: -8

Problem: What does the record list as growth inhibition for CC(C)=CCCC(C)C1=C(O)C(=O)C(C)=CC1=O (stereo not given) ?
Result: 15

Problem: What does the record list as growth inhibition for N#Cc1c2ccccc2nc2ccccc12 ?
Result: -1

Problem: What does the record list as growth inhibition for NC(CS/C(Cl)=C/Cl)C(=O)O (stereo not given) ?
Result: 34

Problem: What does the record list as growth inhibition for NNc1cccc([N+](=O)[O-])c1 ?
Result: 10

Problem: What does the record list as growth inhibition for COCc1c(C#N)c(Cl)nc(C)c1[N+](=O)[O-] ?
Result: 14

Problem: What does the record list as growth inhibition for CCOC(=O)c1cc(CC)sc1NC(=O)CC(C)=O ?
Result: 42

Problem: What does the record list as growth inhibition for CCNc1nnnn1CC ?
Result: 0

Problem: What does the record list as growth inhibition for COC1=CC(=O)c2c(O)c3c(c(O)c2C1=O)CC(C)(O)OC3 (stereo not given) ?
Result: 89

Problem: What does the record list as growth inhibition for CCCCCCCCCCCC1=NCCCN1CCCC ?
Result: 26

Problem: What does the record list as growth inhibition for CC(C)c1ccc(Nc2n[nH]c(=S)s2)cc1 ?
Result: 35

Problem: What does the record list as growth inhibition for O=C(CCl)N1c2ccccc2Sc2c1ccc1ccccc21 ?
Result: 47

Problem: What does the record list as growth inhibition for Nc1cc(-c2ccccc2)ccc1O ?
Result: 5

Problem: What does the record list as growth inhibition for O/N=C1\c2ccccc2-c2ccc(F)cc21 ?
Result: 13

Problem: What does the record list as growth inhibition for COc1ccc2c(c1OC)OCC(CN(C)C)C2=O (stereo not given) ?
Result: 23

Problem: What does the record list as growth inhibition for C[C@@]1(CO)[C@H](O)CC[C@@]2(C)[C@H]1CC[C@H]1C[C@@H]3C[C@@]12CC[C@@]3(O)COC(=O)CN ?
Result: -1

Problem: What does the record list as growth inhibition for O=Nc1ccc2ccccc2c1O ?
Result: -6

###

Assay notes: NCI Yeast Anticancer Drug Screen. Data for the sgs1 mgt1 strain (AID 161);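 note: 0% = growth of cultures given vehicle only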
Condition set: S. cerevisiae sgs1 mgt1 strain, at 50.0 µM (retest, dose inferred, filed as 5.0), stronger effect = higher value
About 79,000 compounds went through this panel and 15% of them were active in at least one assay; those are over-represented in the sample as a whole.
Label True when growth inhibition >= 90%; otherwise False.

Consider the following illustrative entries.
{"columns": ["Molecule", "Assigned class"],
 "data": [
  ["CN1CCC(c2ccccc2)(c2ccccc2)C(=O)C1", "True"],
  ["CCC(C)C(N)C(=O)NC(CC(N)=O)C(=O)NC(CC(C)C)C(=O)NC(CCCCN)C(=O)NC(C)C(=O)NC(CC(C)C)C(=O)NC(C)C(=O)NC(C)C(=O)NC(CC(C)C)C(=O)NC(C)C(=O)NC(CCCCN)C(=O)NC(CCCCN)C(=O)NC(C(=O)NC(CC(C)C)C(N)=O)C(C)CC (configuration not stated)", "True"],
  ["COCc1c(C#N)c(Cl)nc(C)c1[N+](=O)[O-]", "True"],
  ["CCN(CC)CC(O)CNc1ccc(NCC2CO2)c2c1C(=O)c1ccccc1C2=O (configuration not stated)", "False"],
  ["Cc1cc2cccnc2c2ncccc12", "True"],
  ["CC(C)(C)c1ccc(CCO)cc1", "False"]
]}

Problem: For this molecule, is measured growth inhibition 90% or higher? Cc1cccc2c(N)c3ccccc3nc12
Result: False

###

Assay notes: NCI Yeast Anticancer Drug Screen. Data for the mlh1 rad18 strain (AID 175)
Condition set: S. cerevisiae mlh1 rad18 strain growth inhibition; at 50.0 µM (retest, dose inferred, filed as 5.0); stronger effect = higher value
About 79,000 compounds went through this panel and 15% of them were active in at least one assay; those are over-represented in the sample as a whole.
Classification by growth inhibition follows these ranges: low group: < 50%; middle group: ≥ 50% and < 90%; high group: ≥ 90%

Consider the following illustrative entries.
{"columns": ["Molecule", "Assigned class"],
 "data": [
  ["Oc1c(Cl)cc(Cl)cc1C(c1cc(Cl)cc(Cl)c1O)C(Cl)(Cl)Cl", "high group"],
  ["COc1ccc(C(N)=O)cc1", "low group"]
]}

Problem: Assign a bin to Cc1ccccc1OCc1cccc(Cl)c1
Result: low group

Problem: Assign a bin to C1=C(c2ccccc2)c2ccccc2C1
Result: middle group

Problem: Assign a bin to N#C/C(=N\O)C(N)=O
Result: middle group

Problem: Assign a bin to CN(C)c1cc(N)c(Cc2c(N)cc(N(C)C)cc2Cl)c(Cl)c1
Result: high group

Problem: Assign a bin to O=C(O)CCCOc1cc(-c2ccccc2F)nc2cc3c(cc12)OCO3
Result: middle group

Problem: Assign a bin to CC1(C)N=c2cc3c(cc2N1c1ccc(Cl)cc1)=Nc1ccccc1N3c1ccc(Cl)cc1
Result: low group

Problem: Assign a bin to CCOc1ccc(C(CN2CCOCC2)C(C)=O)cc1OC (configuration not stated)
Result: middle group

Problem: Assign a bin to C/C(=N\Nc1ccc(Cl)cc1)C(=O)O
Result: high group

###

Assay notes: NCI Yeast Anticancer Drug Screen. Data for the cln2 rad14 strain (AID 165);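 note: 0% = growth equal to vehicle treated cultures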
Condition set: S. cerevisiae cln2 rad14 strain, at 50.0 µM (retest, dose inferred, filed as 5.0)
Compounds without any hit were thinned out: in the full panel of roughly 79,000, 15% have a hit. Active and inactive are the calls of the source. No stated cut-off is given here; in the data, active means growth inhibition above about 70%; inactive means the rest.
Respond only with the outcome that fits, drawn from yes for active, no for inactive

{"columns": ["Molecule", "Assigned class"],
 "data": [
  ["CCOC(=O)c1c(C)[nH]c2ccc(O)cc12", "no"]
]}

Problem: Outcome logged for O=C(Cc1ccccc1)C(F)(F)F in this assay:
Result: no

Problem: Outcome logged for CCOC(=O)C1=NN(c2ccccc2)C(=O)/C1=C\N1C(=O)/C(=C/c2cccc(O)c2)SC1=S in this assay:
Result: no

Problem: Outcome logged for CCc1cnc2ccccc2c1/C=C/c1ccc(N(C)C)cc1 in this assay:
Result: yes

###

Assay notes: NCI Yeast Anticancer Drug Screen. Data for the cln2 rad14 strain (AID 165);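 note: 0% = growth equal to vehicle treated cultures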
Condition set: S. cerevisiae cln2 rad14 strain, at 5.0 µM (retest, dose inferred, filed as 0.5), stronger effect = higher value
This is part of a sample that, as a whole, favours compounds with a hit. Of some 79,000 tested, about 15% had one in any assay.
List of growth inhibition values.
Only the number, expressed in %, is required.

Consider the worked cases shown below.
{"columns": ["Compound", "Result units", "Reported result"],
 "data": [
  ["Cc1cc(C(=O)c2ccccc2Cl)ccc1O", "%", -2],
  ["CN(C)c1ccc2cc3c(cc2c1)Oc1ccccc1N3.[Cl][Zn][Cl]", "%", 29],
  ["CCOC(=O)C1C(C(C)C)C2(C#N)C(=N)OC1(C)C2(C#N)C#N (configuration not stated)", "%", 6]
]}

Problem: What does the record list as growth inhibition for COc1ccc(OC)c(Cc2cnc3nc(N)nc(N)c3c2C)c1 ?
Result: 9

Problem: What does the record list as growth inhibition for Oc1c(Cl)cc(Cl)cc1C=NCC1CCC(CN=Cc2cc(Cl)cc(Cl)c2O)CC1 (configuration not stated) ?
Result: 39

Problem: What does the record list as growth inhibition for CN(C)c1ccc(C(C#N)(c2ccccc2)c2ccc(N(C)C)cc2)cc1 ?
Result: 1

Problem: What does the record list as growth inhibition for O=C1c2ccccc2-c2ccc(O)cc21 ?
Result: 10

Problem: What does the record list as growth inhibition for Cc1cc(Br)c2nsnc2c1[N+](=O)[O-] ?
Result: 32

Problem: What does the record list as growth inhibition for COc1ccc(/C=C2/C(=O)ON=C2C)cc1 ?
Result: -12

Problem: What does the record list as growth inhibition for CCCCCCCCCCCCCCCCCC1=NCCCN1CCO ?
Result: 9

Problem: What does the record list as growth inhibition for O=[N+]([O-])c1cc(-c2ccccc2)c(O)c([N+](=O)[O-])c1 ?
Result: 27

Problem: What does the record list as growth inhibition for Nc1cccc2c1-c1ccccc1C2=O ?
Result: -1
